meta.source: paper PMC10786891

Biological target: T1, EsCas13d, nuclease-dead (Eubacterium siraeum, UniProt B0MS50, R295A;H300A;R849A;H854A)
T1 sequence: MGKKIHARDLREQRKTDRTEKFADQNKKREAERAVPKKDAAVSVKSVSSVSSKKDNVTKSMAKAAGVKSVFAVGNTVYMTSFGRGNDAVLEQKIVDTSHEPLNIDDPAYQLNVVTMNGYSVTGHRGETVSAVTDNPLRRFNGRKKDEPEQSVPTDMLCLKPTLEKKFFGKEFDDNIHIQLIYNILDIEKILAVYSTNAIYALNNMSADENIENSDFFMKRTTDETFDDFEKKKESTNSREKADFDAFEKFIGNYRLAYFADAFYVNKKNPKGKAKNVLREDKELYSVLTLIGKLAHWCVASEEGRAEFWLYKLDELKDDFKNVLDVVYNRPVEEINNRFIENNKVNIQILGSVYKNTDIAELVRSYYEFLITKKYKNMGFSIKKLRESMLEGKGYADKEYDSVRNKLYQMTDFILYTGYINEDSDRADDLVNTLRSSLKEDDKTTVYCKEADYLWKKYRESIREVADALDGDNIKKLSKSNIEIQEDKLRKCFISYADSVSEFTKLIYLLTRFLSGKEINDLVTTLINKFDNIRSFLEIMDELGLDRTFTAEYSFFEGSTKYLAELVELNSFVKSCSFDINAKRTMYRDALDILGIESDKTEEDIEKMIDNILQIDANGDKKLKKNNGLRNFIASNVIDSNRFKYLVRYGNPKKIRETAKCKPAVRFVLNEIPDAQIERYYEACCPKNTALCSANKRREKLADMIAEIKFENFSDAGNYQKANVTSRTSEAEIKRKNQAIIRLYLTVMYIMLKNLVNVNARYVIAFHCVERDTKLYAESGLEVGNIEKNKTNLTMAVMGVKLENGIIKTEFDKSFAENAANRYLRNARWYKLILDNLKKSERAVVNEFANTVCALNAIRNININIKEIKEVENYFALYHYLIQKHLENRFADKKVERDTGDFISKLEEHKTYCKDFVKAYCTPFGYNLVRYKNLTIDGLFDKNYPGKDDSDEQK
Experiment: crRNA (strand 1, pre-loaded); Mg2+; 40 mM Tris-HCl pH 7.5, 150 mM NaCl, 6 mM MgCl2, 1 mM DTT, 0.1% Tween-20, 0.2 mg/ml BSA; 25 C; 10 min per concentration, then washed
Conditions: tags: His6-TwinStrep-SUMO cleaved; N-terminal SNAP kept (SNAP-Surface 488); label: 3' end held by stalled T7 RNA polymerase
reported endpoint: Kd (nM)
Numbers only here, please. The scale is nM.

Answered examples (3):
target 1 insU 3' of 17,insA 3' of 8 (mixed) RNA 1: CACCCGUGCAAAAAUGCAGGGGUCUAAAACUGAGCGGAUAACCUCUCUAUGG RNA 2: GGGAAUGGAUCCACAUCUACGAAUUCGUACCAUAGUAGAGGUUAUACCGCUCACCGAGAUCGGAAGAGCACACGU	24.6
target 1 U8C,U10C (mixed) RNA 1: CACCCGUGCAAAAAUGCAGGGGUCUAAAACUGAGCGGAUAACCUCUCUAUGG RNA 2: GGGAAUGGAUCCACAUCUACGAAUUCGUACCAUAGAGAGGUCACCCGCUCACCGAGAUCGGAAGAGCACACGU	22.4
target 2 MT 5'PFS GUA 3'PFS UUC (mixed) RNA 1: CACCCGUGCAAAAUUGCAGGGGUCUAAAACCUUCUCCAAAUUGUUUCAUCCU RNA 2: GGGAAUGGAUCCACAUCUACGAAUUCGUAAGGAUGAAACAAUUUGGAGAAGUUCAGAUCGGAAGAGCACACGU	42

Ask | Note Kd for the binder shown: target 3 insU 3' of 22,insA 3' of 2 (mixed) RNA 1: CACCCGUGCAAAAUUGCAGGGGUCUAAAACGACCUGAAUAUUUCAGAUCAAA RNA 2: GGGAAUGGAUCCACAUCUACGAAUUCGUUUUUUGAUCUGAAAUAUUCAGGUACUGCAGAUCGGAAGAGCACACGU
Reply | 26.2
